target: SARS-COV-2 RBD extracellular domain expressed with a C-terminal mouse IgG2a (SARS-CoV-2); experiment: SPR Biacore, mAb captured via anti-hFc, 25 C
pKd: −log10 of the molar value.
propertyLabel: pKd

binder | reportedMeasurement
mAb11006 (antibody, V domains shown) VH: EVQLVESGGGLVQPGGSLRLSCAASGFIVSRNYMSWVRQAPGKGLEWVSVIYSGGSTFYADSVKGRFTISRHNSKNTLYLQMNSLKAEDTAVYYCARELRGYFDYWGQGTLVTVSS VL: DIQLTQSPSFLSASVGDRVTITCWASQGISSYLAWYQQKPGKAPKLLIYAASTLQSGVPSRFSGSGSGTEFTLTISSLQPEDFATYYCQLLNSYPYTFGQGTKLEIKR | 9.80
mAb10955 (antibody, V domains shown) VH: EVQLVESGGGLVQPGGSLRVSCAASGFTVSRNYMSWVRQAPGKGLEWVSVIYSGGSTFYADSVKGRFTISRDNSKNTLYLQMNSLRAEDTAIYYCARYIPRFDPWGQGTLVTVSS VL: DIQMTQSPSSLSASVGDRVTITCQASQDISNYLNWFQQKPGRAPKLLIYDASNLETGVPSRFSGSGSGTDFTFTISSLQPEDIATYYCQQYDNLPITFGQGTRLEIKR | 10.11
mAb10920 (antibody, V domains shown) VH: QVQLVESGGGVVQPGRSLRLSCAASGFTFSYYGMHWVRQAPGKGLEWVAVIWYDGSNKFYADSVKGRFTISRDNSKNTLYLQMNSLRAEDTAVYYCAAARPGYYYGMDVWGQGTTVTVSS VL: DIQMTQSPSSLSASVGDRVTITCRASQGISNYLAWFQQKPGKAPNSLIYAASSLQRGVPSKFSGSGSGTDFTLTISSLQPEDFATYYCQQYNSYPRTFGQGTKVEIKR | 10.30
